Target: Sphingosine kinase 2 (Homo sapiens)
Experiment: Inhibition of recombinant human SphK2 assessed as decrease in [33P]SIP production at 0.3 uM using sphingosine as substrate in presence of [gamma33P]-ATP by scintillation counting method relative to control
measurement_kind: inhibition (%)

(P) Cc1cc(/C=C/c2ccc(C(C)(C)C)cc2)ccc1CN1CCC[C@@H]1CO
(Q) OC[C@H]1CCCN1Cc1ccc(Oc2cccc(-c3ccccc3)c2)cc1
(R) CCCCCCCCOc1ccc(CN2CCC[C@@H]2CO)cc1
(S) OC[C@H]1CCCN1Cc1ccc(Oc2ccccc2)cc1
(T) CCCCCCCCCCCCc1ccc(CN2CCC[C@@H]2CO)c(C)c1
Sort the items above by inhibition, starting with the smallest value. In your reply, arrange the labels in the requested order.
Q, R, P, S, T
(Q: 0%, R: 1%, P: 3%, S: 13%, T: 38%)

---

Target: Sphingosine kinase 2 (Homo sapiens) (UniProt Q9NRA0)
Sequence (Q9NRA0 whole entry): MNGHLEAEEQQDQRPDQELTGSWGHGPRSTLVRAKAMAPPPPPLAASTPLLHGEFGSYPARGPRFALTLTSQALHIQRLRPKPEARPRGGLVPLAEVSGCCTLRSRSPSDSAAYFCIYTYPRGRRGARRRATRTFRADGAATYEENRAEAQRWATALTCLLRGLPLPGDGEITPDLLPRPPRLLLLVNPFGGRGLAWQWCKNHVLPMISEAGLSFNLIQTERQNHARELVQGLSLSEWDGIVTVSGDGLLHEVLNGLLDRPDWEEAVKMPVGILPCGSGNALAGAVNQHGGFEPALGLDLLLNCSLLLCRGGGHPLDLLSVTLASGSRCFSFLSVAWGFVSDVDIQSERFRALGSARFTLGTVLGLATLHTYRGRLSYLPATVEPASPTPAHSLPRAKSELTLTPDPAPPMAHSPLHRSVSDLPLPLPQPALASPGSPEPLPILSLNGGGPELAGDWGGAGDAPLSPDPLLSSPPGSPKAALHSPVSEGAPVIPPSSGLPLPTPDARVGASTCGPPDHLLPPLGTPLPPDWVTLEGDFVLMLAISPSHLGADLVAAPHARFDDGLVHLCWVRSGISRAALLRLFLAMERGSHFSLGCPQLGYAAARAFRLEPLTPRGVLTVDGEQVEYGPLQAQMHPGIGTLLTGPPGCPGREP
Test: Inhibition of recombinant human SphK2 assessed as decrease in [33P]SIP production at 0.3 uM using sphingosine as substrate in presence of [gamma33P]-ATP by scintillation counting method relative to control
measurement_kind: inhibition (%)

CCCCCc1ccc(C#Cc2ccc(CN3CCC[C@@H]3CO)cc2)cc1 | 19

(A) CCCCCc1ccc(CCc2ccc(CN3CCC[C@@H]3CO)cc2)cc1
(B) OC[C@H]1CCCN1Cc1ccc(/C=C/c2cccc(C(F)(F)F)c2)cc1
(C) CCCCCCCCCc1ccc(CN2CCC[C@@H]2CO)cc1
Your job: order these 3 records by inhibition, ascending. Answer format: the labels, ordered as requested.
B, A, C

(I) OC[C@H]1CCCN1Cc1ccc(OCc2ccc(C(F)(F)F)cc2)cc1
(II) CCCc1ccc(CCc2ccc(CN3CCC[C@@H]3CO)cc2)cc1
(III) COc1ccc(CCc2ccc(CN3CCC[C@@H]3CO)cc2)cc1
Sort the molecules on inhibition; start with the lowest figure. API: response body holds the labels in the requested order.
I, III, II
(I: 0%, III: 3%, II: 15%)

---

Biological target: Sphingosine kinase 2 (Homo sapiens) (UniProt Q9NRA0)
Experiment: Inhibition of recombinant human SphK2 assessed as decrease in [33P]SIP production at 0.3 uM using sphingosine as substrate in presence of [gamma33P]-ATP by scintillation counting method relative to control
measurement_kind: inhibition (%)

Worked cases, inhibition given:
OC[C@H]1CCCN1Cc1ccc(Oc2ccc(-c3ccccc3)cc2)cc1 | 9
OC[C@H]1CCCN1Cc1ccc(Oc2cccc(-c3cccc(C(F)(F)F)c3)c2)cc1 | 11

(P) CCCCCCCCCOc1ccc(CN2CCC[C@@H]2CO)cc1
(Q) CCCCc1ccc(C#Cc2ccc(CN3CCC[C@@H]3CO)cc2)cc1
(R) OC[C@H]1CCCN1Cc1ccc(Oc2ccc(-c3ccc(C(F)(F)F)cc3)cc2)cc1
(S) CC(C)(C)c1cccc(Oc2ccc(CN3CCC[C@@H]3CO)cc2)c1
(T) CCCCCCCCCCCc1ccc(CN2CCC[C@@H]2COC(C)=O)cc1
Order the records so the highest inhibition appears first and the lowest last. Your task in answering is to list the labels in the requested order.
P, Q, S, T, R
(P: 44%, Q: 25%, S: 11%, T: 2%, R: 0%)

(1) CCCCCCCCCCc1ccc(CN2CCC[C@@H]2CO)cc1
(2) CCCCCCCCCCCc1ccc(CN2CCC[C@@H]2CO)cc1
(3) CCCCCCCCCCOc1ccc(CN2CCC[C@@H]2CO)cc1
Put the items in sequence by inhibition, from largest down. API: response body holds the labels in the requested order.
1, 2, 3
(1: 54%, 2: 18%, 3: 11%)

---

Molecular target: Sphingosine kinase 2 (Homo sapiens)
Experiment: Inhibition of recombinant human SphK2 assessed as decrease in [33P]SIP production at 0.3 uM using sphingosine as substrate in presence of [gamma33P]-ATP by scintillation counting method relative to control
measurement_kind: inhibition (%)

Examples with their reported inhibition follow.
CCCCCCCCCCCCc1ccc(CN2CCC[C@@H]2CO)cc1 | 37
CCCc1ccc(C#Cc2ccc(CN3CCC[C@@H]3CO)cc2)cc1 | 0
Cc1ccc(CCc2ccc(CN3CCC[C@@H]3CO)cc2)cc1 | 26

(P) CCCCCCCOc1ccc(CN2CCC[C@@H]2CO)cc1
(Q) OC[C@H]1CCCN1Cc1ccc(Oc2cccc(-c3ccc(C(F)(F)F)cc3)c2)cc1
Compare P and Q by numeric inhibition and name the larger one. # answer = label of selected item
Q
(Q: 1%, P: 0%)
